Target: ActRIIA and ActRIIB (on TGFB/SMAD SBE Reporter HEK293 cells) (human)
Sequence (chain, as listed by the source, chain 1 of 2): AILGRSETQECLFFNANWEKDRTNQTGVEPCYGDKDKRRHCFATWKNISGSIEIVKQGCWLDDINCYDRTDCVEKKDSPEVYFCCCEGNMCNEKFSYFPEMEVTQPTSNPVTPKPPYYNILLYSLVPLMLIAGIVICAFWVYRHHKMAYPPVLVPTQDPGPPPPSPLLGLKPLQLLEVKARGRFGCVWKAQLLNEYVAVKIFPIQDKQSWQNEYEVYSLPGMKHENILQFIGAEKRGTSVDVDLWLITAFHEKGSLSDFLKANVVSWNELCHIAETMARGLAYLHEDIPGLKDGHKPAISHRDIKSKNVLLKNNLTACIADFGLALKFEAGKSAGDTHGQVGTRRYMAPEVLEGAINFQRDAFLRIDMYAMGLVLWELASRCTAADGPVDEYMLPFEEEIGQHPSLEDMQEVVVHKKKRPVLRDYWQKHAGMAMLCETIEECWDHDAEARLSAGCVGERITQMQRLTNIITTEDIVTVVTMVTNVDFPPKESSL
Sequence (chain, as listed by the source, chain 2 of 2): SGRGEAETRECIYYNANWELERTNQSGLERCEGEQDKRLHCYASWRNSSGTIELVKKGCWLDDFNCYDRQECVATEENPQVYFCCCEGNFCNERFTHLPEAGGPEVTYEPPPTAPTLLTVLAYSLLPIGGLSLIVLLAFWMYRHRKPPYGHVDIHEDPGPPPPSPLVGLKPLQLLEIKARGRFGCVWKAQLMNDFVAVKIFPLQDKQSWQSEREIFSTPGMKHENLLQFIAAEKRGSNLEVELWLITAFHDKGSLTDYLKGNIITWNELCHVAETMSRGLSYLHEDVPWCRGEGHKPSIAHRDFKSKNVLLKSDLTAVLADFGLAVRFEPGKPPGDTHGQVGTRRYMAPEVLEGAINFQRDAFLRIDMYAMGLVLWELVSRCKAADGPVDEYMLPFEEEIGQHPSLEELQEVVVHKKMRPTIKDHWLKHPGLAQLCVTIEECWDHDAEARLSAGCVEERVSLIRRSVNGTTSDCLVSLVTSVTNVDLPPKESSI
Test: cell-based or functional assay

binder	IC50, Activin SMAD RGA
Antibody Ochsauga (antibody, V domains shown, full-length IgG) VH: QVQLVQSGAEVKKPGASVKVSCKASGYTFTSSYINWVRQAPGQGLEWMGTINAVSGSTSYAQKFQGRVTMTRDTSISTAYMELSRLRSDDTAVYYCARGGWFDVWGQGTLVTVSS VL: QSALTQPASVSGSPGQSITISCTGTSSDIGSYNYVNWYQQHPGKAPKLMIYGVSKRESGVSNRFSGSKSGNTASLTISGLQAEDEADYYCGTFAGGSYYGVFGGGTKLTVL	0.238 nM
Antibody Floischbrühsupp (antibody, V domains shown, full-length IgG) VH: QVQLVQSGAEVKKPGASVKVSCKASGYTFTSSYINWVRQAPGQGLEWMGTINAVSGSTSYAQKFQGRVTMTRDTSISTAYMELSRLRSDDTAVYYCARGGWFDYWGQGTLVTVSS VL: QSALTQPASVSGSPGQSITISCTGTSSDVGSFNYVNWYQQHPGKAPKLMIKGVSKRESGVSNRFSGSKSGNTASLTISGLQAEDEADYYCGTFAGGAYYGVFGGGTKLTVL	0.324 nM
Antibody Dürrfloischeggla (antibody, V domains shown, full-length IgG) VH: QVQLVQSGAEVKKPGASVKVSCKASGYTFTSSYINWVRQAPGQGLEWMGTINAVSGSTSYAQKFQGRVTMTRDVSISTAYMELSRLRSDDTAVYYCARGGWFDYWGQGTLVTVSS VL: QSALTQPASVSGSPGQSITISCTGTSSDVGSYNVVNWYQQHPGKAPKLMISGVSKRESGVSNRFSGSKSGNTASLTISGLQAEDEADYYCGTFAGGKYYGVFGGGTKLTVL	0.423 nM
